Molecular target: Oxysterols receptor LXR-alpha (Homo sapiens)
Sequence (Q13133 whole entry): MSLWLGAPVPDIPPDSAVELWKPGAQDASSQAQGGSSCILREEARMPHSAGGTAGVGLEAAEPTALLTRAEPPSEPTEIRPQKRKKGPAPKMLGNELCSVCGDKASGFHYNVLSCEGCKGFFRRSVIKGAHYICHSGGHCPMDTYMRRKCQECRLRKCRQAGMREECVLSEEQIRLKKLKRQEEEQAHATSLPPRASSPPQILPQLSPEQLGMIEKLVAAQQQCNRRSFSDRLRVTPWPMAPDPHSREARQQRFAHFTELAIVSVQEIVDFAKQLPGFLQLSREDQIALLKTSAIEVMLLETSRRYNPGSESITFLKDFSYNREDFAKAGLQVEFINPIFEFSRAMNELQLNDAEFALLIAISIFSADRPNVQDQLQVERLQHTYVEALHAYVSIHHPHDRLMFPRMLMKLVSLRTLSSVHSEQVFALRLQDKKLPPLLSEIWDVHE
Listing of IC50 toward Oxysterols receptor LXR-alpha (Homo sapiens), each taken from a published source.
Mark condition met for IC50 under 600 nM, condition not met if at or over.

Please review the entries below; each comes with its answer.
> print(dat)
                                   molecule              group
1  Cc1nc2c(C(F)(F)F)cccc2nc1-c1ccc(-c2ccc(S(C)(=O)=O)cc2)cc1  condition not met
2  COc1ccc(-c2cccc(-c3c(C)cnc4c(C(F)(F)F)cccc34)c2)cc1S(C)(=O)=O  condition not met
3  CCCc1c(OCCCN(C=O)c2ccc(CC(=O)O)cc2)ccc2c(C(F)(F)F)noc12  condition not met
4  O=C(c1cccc(Oc2cccc(-c3c(Cc4ccccc4)cnc4c(C(F)(F)F)cccc34)c2)c1)N1CCOCC1      condition met
5  CCCc1c(OCCCOc2ccc(CC(=O)O)cc2)ccc2c(C(F)(F)F)noc12  condition not met

*Q* Please check: IC50 for CC(C)=CCC/C(C)=C/C[C@H]1C[C@]2(CC=C(C)C)C(=O)[C@@](CC=C(C)C)(C(=O)C(C(=O)c3ccc(O)c(O)c3)=C2O)[C@]1(C)CCC=C(C)C , strictly under 600 nM or not?
*A* condition not met

*Q* Bench note: check whether O=C(O)[C@H]1CC[C@H](C(=O)N2CC[C@@]3(S(=O)(=O)c4cccc(Cl)c4)c4ccc(C(F)(C(F)(F)F)C(F)(F)F)cc4CC[C@@H]23)CC1 shows IC50 below 600 nM
*A* condition not met

*Q* Please determine if CCCNC(=O)c1cccc(Oc2cccc(-c3c(Cc4ccccc4)cnc4c(C(F)(F)F)cccc34)c2)c1 is below 600 nM in terms of IC50.
*A* condition met

*Q* Check if IC50 falls below 600 nM for CCCc1c(OCCCN2C(=O)Cc3cc(CC(=O)O)ccc32)ccc2c(C(F)(F)F)noc12 .
*A* condition met

*Q* Problem: For the molecule CCN(c1ccc(C(O)(C(F)(F)F)C(F)(F)F)cc1Cl)C(COc1ccc(CC(=O)O)cc1)c1ccccc1 (racemic) , is IC50 under 600 nM?
*A* condition met

====

Biological target: Oxysterols receptor LXR-alpha (Homo sapiens, UniProt Q13133)
Sequence (Q13133 whole entry): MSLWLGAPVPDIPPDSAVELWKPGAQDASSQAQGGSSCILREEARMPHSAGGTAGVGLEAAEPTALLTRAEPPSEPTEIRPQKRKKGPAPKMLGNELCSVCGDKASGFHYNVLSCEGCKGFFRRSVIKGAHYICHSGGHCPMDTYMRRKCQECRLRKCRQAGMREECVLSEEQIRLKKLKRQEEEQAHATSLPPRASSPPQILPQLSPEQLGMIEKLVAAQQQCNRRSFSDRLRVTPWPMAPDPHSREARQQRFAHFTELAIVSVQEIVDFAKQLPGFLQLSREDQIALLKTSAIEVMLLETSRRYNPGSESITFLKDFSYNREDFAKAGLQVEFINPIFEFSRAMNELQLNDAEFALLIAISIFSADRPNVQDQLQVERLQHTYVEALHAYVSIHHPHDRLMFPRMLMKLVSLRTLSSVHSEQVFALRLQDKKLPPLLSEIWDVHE
// molecules with reported IC50 on Oxysterols receptor LXR-alpha (Homo sapiens, UniProt Q13133), multi-publication

For reference, reported IC50 for CCCCN(Cc1cccc(O)c1)c1ccc(C(O)(C(F)(F)F)C(F)(F)F)cc1 stands at 160 nM

Per the records, this molecule ( O=C(O)[C@H]1CC[C@H](C(=O)N2CC[C@@]3(S(=O)(=O)c4ccc(Cl)cc4)c4ccc(C(F)(C(F)(F)F)C(F)(F)F)cc4CC[C@@H]23)CC1 ) has IC50 equal to > 10000 nM

The reported value for Clc1ccc(CN(Cc2cccnc2)Cc2cc3ccccc3s2)cc1 in terms of IC50 is 40000 nM

For this molecule ( CCCc1c(OCCCN2C(=O)Cc3cc(C(=O)O)ccc32)ccc2c(C(F)(F)F)noc12 ), measured IC50 is 97 nM

====

IC50 for Oxysterols receptor LXR-alpha (Homo sapiens) - collated from the literature.

> print(dat)
                         structure.notation  experimental.endpoint      result
1  O=C(O)[C@H]1CC[C@@H](C(=O)N2CC[C@@]3(S(=O)(=O)c4ccc(F)cc4)c4ccc(C(F)(C(F)(F)F)C(F)(F)F)cc4CC[C@@H]23)CC1                   IC50  > 10000 nM
2  CS(=O)(=O)c1ccc(-c2cccc(-c3ccnc4c(C(F)(F)F)cccc34)c2)cc1                   IC50   > 1000 nM
3  CC(=O)N1CCC(C(=O)N2CC[C@@]3(S(=O)(=O)c4ccc(F)cc4)c4ccc(C(F)(C(F)(F)F)C(F)(F)F)cc4CC[C@@H]23)CC1                   IC50  > 10000 nM
4  CC(C)c1nc2c(C(F)(F)F)cccn2c1-c1ccc(-c2ccc(S(C)(=O)=O)cc2)cc1                   IC50   > 1000 nM

The compound identified as CCCCN(Cc1ccccn1)c1ccc(C(O)(C(F)(F)F)C(F)(F)F)cc1 registered its IC50 at 120 nM

According to the records, this compound CCS(=O)(=O)c1cccc(-c2ccc(-c3nc4cccc(C(F)(F)F)c4nc3C)cc2)c1 displays IC50 of > 1000 nM

====

Assay read-out pIC50 on Oxysterols receptor LXR-alpha (Homo sapiens, UniProt Q13133); records merged from the literature.
# pIC50 is unitless: minus log10 of the molar concentration; print number only

The cases that follow already have their pIC50 on record.
> print(dat)
                                   compound  numeric.readout
1  CCN(c1ccc(C(O)(C(F)(F)F)C(F)(F)F)cc1)C(C(=O)NC)c1ccccc1 (racemic)             4.95
2    N#Cc1ccc(CN(Cc2cccnc2)Cc2cc(F)ccc2F)s1             5.20
3  CCCc1c(OCCCn2nnc3cc(CC(=O)O)ccc32)ccc2c(C(F)(F)F)noc12             6.39

Record CCCc1c(OCCCNc2ccc(CC(=O)O)cc2)ccc2c(C(F)(F)F)noc12 has Oxysterols receptor LXR-alpha (Homo sapiens, UniProt Q13133) pIC50 equal to 7.17

Known value: Oxysterols receptor LXR-alpha (Homo sapiens, UniProt Q13133) pIC50 of the compound CCN(Cc1ccccc1)c1ccc(C(O)(C(F)(F)F)C(F)(F)F)cc1Cl equals 8.52

pIC50 on Oxysterols receptor LXR-alpha (Homo sapiens, UniProt Q13133) for CCN(Cc1ccccc1)c1ccc(C(O)(C(F)(F)F)C(F)(F)F)cc1 is 7.30

Let me check: Cc1ccccc1CN(Cc1cccnc1)Cc1ccc([N+](=O)[O-])s1 , system Oxysterols receptor LXR-alpha (Homo sapiens, UniProt Q13133), measured pIC50 is 4.49

Hey, Oxysterols receptor LXR-alpha (Homo sapiens, UniProt Q13133) data for CCN(c1ccc(C(O)(C(F)(F)F)C(F)(F)F)cc1)C(COCC(=O)OC)c1ccccc1 (racemic) : pIC50 came out at 6.22

Bench note, Oxysterols receptor LXR-alpha (Homo sapiens, UniProt Q13133): O=[N+]([O-])c1ccc(CN(Cc2ccc(Cl)cc2)Cc2ccccc2F)s1 , pIC50 reads 4.70

Record CCN(c1ccc(C(O)(C(F)(F)F)C(F)(F)F)cc1)C(COCC(=O)N(C)C)c1ccccc1 (racemic) / Oxysterols receptor LXR-alpha (Homo sapiens, UniProt Q13133), pIC50 recorded as 6.05

The reported Oxysterols receptor LXR-alpha (Homo sapiens, UniProt Q13133) pIC50 of CCN(c1ccc(C(O)(C(F)(F)F)C(F)(F)F)cc1Cl)C(COc1ccc(CCC(=O)OC)cc1)c1ccccc1 (racemic) is 7.00

====

// cross-study collection: IC50 for UniProt Q13133
Molecular target: UniProt Q13133
Sequence (Q13133 whole entry): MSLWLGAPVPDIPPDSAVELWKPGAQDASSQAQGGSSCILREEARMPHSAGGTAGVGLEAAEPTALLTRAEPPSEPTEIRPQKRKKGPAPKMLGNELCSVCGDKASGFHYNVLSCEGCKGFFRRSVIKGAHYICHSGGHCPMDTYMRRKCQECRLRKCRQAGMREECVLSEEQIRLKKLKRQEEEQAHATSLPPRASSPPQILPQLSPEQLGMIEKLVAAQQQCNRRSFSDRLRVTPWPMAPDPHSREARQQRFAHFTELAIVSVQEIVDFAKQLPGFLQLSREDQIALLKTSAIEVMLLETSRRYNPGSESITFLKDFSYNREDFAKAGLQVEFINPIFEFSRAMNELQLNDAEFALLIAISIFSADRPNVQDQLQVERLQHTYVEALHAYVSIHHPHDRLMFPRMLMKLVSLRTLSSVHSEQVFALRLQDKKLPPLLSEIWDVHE
Lab note: compare IC50 with 0.2 µM, writing Satisfied if less and Not satisfied if equal or more.

Observe how each entry below is paired with its result.
> print(dat)
                                   compound          group
1  O=C(N1CC[C@@]2(S(=O)(=O)c3ccc(F)cc3)c3ccc(C(F)(C(F)(F)F)C(F)(F)F)cc3CC[C@@H]12)C1(O)CCS(=O)(=O)CC1  Not satisfied
2  Cc1cccc(S(=O)(=O)[C@@]23CCN(C(=O)[C@H]4CC[C@H](C(=O)O)CC4)[C@@H]2CCc2cc(C(F)(C(F)(F)F)C(F)(F)F)ccc23)c1  Not satisfied

*Q* Hello, is IC50 of the following compound strictly smaller than 0.2 µM? COC(=O)c1ccc(COc2cccc(-c3c(C(=O)c4ccccc4)cnc4c(C(F)(F)F)cccc34)c2)cc1
*A* Not satisfied

*Q* Please determine if Cc1nc2c(C(F)(F)F)cccc2nc1-c1ccc(-c2ccccc2S(C)(=O)=O)cc1 is below 0.2 µM in terms of IC50.
*A* Not satisfied

*Q* # strict comparison: is reported IC50 < 0.2 µM? input = CCCc1c(OCCCN(C)c2ncc(CC(=O)O)s2)ccc2c(C(F)(F)F)noc12
*A* Satisfied
